Attribution: patent US20240368115A1

- run-description: Pharmacokinetic test in mice
- Assay type: in vivo
- condition-notes: male, ICR, mouse, plasma, po, 3 mg/kg, oral intragastric, single dose 3 mg/kg
measurement-name: half-life (h)
Entry rule: numbers only, all in h.

In plain terms, O=C1Nc2cc(OCCCCN3CCN(c4cccc5sc(Cl)cc45)CC3)ccc2C2CC12 (stereo not shown) has a documented half-life of 10.5

* * *

- run-description: Pharmacokinetic test in mice
- Format: in vivo
- condition-notes: male, ICR, mouse, plasma, po, 5 mg/kg, oral intragastric, single dose 5 mg/kg
Each entry below carries its reported half-life.
Entry rule: numbers only, all in h.

>>> df
                                   compound  number
0  O=C1COc2ccc(OCCCCN3CCN(c4cccc(Cl)c4Cl)CC3)cc2N1 [RP5063, reference compound]     3.8
1  O=C1Nc2cc(OCCCCN3CCN(c4cccc5c4OC(F)(F)O5)CC3)ccc2C2CC12 (centres unmarked)     8.6
2  O=C1Nc2cc(OCCCCN3CCN(c4cccc(Cl)c4Cl)CC3)ccc2[C@H]2C[C@@H]12 (single isomer, unassigned) [Example 1-P1]    34.3
3  O=C1Nc2cc(OCCCCN3CCN(c4cccc5c4CCO5)CC3)ccc2C2CC12 (single isomer, unassigned) [Example 45-P1]     3.2

In plain terms, O=C1Nc2cc(OCCCCN3CCN(c4cccc5c4CC(F)(F)C5)CC3)ccc2C2CC12 (centres unmarked) has a documented half-life of 15.2

In plain terms, O=C1Nc2cc(OCCCCN3CCN(c4cccc5sccc45)CC3)ccc2C2CC12 (single isomer, unassigned) [Example 42-P1] has a documented half-life of 4.1

In plain terms, O=C1Nc2cc(OCCCCN3CCN(c4cccc5sccc45)CC3)ccc2C2CC12 (centres unmarked) [Example 42] has a documented half-life of 13

In plain terms, O=C1Nc2cc(OCCCCN3CCN(c4cccc(Cl)c4Cl)CC3)ccc2C2CC12 (centres unmarked) has a documented half-life of 10.8

In plain terms, O=C1CCc2ccc(OCCCCN3CCN(c4cccc(Cl)c4Cl)CC3)cc2N1 [Aripiprazole, reference compound] has a documented half-life of 3.5

In plain terms, O=C1Nc2cc(OCCCCN3CCN(c4cccc(Cl)c4Cl)CC3)ccc2[C@@H]2C[C@H]12 (single isomer, unassigned) [Example 1-P2] has a documented half-life of 10.8

In plain terms, O=C1Nc2cc(OCCCCN3CCN(c4cccc5c4CCO5)CC3)ccc2C2CC12 (centres unmarked) [Example 45] has a documented half-life of 6.1

* * *

- target: 5-HT1A receptor (Homo sapiens)
- Construct: expressed in transfected cells
- Sequence (P08908 whole entry): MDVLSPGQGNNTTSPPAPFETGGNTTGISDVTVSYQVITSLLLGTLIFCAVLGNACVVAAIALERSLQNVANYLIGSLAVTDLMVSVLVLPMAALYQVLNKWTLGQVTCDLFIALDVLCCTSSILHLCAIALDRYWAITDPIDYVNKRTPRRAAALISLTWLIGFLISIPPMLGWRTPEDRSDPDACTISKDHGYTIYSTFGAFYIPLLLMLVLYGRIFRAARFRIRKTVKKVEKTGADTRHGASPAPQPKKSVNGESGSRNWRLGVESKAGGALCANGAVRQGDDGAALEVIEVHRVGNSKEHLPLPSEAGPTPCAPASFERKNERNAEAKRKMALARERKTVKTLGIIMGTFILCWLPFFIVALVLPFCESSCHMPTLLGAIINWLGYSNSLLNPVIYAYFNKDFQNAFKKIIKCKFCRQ
- run-description: 5-HT1A receptor cAMP agonist test
- Format: cell-based
- condition-notes: HEK293 cell strain stably expressing 5-HT1A receptor; positive control serotonin 10^−6 M
Classification by 5-HT1A Max Act % follows these ranges: low end: < 50%; middle: ≥ 50% and < 60%; high end: ≥ 60%

Exercise: Please indicate the class for O=C1Nc2cc(OCCCCN3CCN(c4cccc5c4CCO5)CC3)ccc2C2CC12 (single isomer, unassigned) [Example 45-P2] based on its 5-HT1A Max Act %.
Key: middle

Exercise: Please indicate the class for O=C1Nc2cc(OCCCCN3CCN(c4cccc5c4CCO5)CC3)ccc2C2CC12 (single isomer, unassigned) [Example 45-P1] based on its 5-HT1A Max Act %.
Key: middle

Exercise: Please indicate the class for O=C1Nc2cc(OCCCCN3CCN(c4cccc5sccc45)CC3)ccc2C2CC12 (single isomer, unassigned) [Example 42-P2] based on its 5-HT1A Max Act %.
Key: low end

Exercise: Please indicate the class for O=C1Nc2cc(OCCCCN3CCN(c4cccc5c4OC(F)(F)O5)CC3)ccc2C2CC12 (centres unmarked) based on its 5-HT1A Max Act %.
Key: high end

Exercise: Please indicate the class for O=C1Nc2cc(OCCCCN3CCN(c4cccc5sc(Cl)cc45)CC3)ccc2C2CC12 (centres unmarked) based on its 5-HT1A Max Act %.
Key: high end

Exercise: Please indicate the class for O=C1CCc2ccc(OCCCCN3CCN(c4cccc(Cl)c4Cl)CC3)cc2N1 [Aripiprazole, reference compound] based on its 5-HT1A Max Act %.
Key: low end

* * *

- target: D2L receptor (Homo sapiens)
- Construct: expressed in transfected cells
- Sequence (P14416 whole entry): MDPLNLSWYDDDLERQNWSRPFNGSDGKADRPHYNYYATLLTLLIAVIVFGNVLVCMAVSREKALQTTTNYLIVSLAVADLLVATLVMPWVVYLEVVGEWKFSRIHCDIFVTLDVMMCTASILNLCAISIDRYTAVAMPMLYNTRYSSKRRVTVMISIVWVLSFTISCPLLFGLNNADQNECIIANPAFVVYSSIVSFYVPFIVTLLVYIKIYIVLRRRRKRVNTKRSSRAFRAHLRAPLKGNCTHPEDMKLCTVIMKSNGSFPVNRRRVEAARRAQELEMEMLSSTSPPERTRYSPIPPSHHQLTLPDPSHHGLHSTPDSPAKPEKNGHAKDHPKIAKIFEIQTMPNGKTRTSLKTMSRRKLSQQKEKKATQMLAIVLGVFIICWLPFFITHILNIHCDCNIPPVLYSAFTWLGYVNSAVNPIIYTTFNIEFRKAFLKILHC
- run-description: D2L receptor cAMP agonist test
- Format: cell-based
- condition-notes: HEK293 cell strain stably expressing D2L receptor; positive control dopamine 1 μM
measurement-name: D2L Max Act % (%)
Entry rule: numbers only, all in %.

Please review the entries below; each comes with its answer.
In [3]: df
Out[3]:
                                   compound  number
0  O=C1Nc2cc(OCCCCN3CCN(c4cccc5ccsc45)CC3)ccc2C2CC12 (stereo not shown) [Example 48]    49.0
1  O=C1Nc2cc(OCCCCN3CCN(c4ccc(Cl)s4)CC3)ccc2C2CC12 (stereo not shown) [Example 51]    82.6
2  O=C1Nc2cc(OCCCCN3CCN(c4cccc5c4CC(F)(F)C5=O)CC3)ccc2C2CC12 (stereo not shown) [Example 47]    35.9

Turning to the following compound.
// returns D2L Max Act % for O=C1Nc2cc(OCCCCN3CCN(c4cccc5c4OCC5)CC3)ccc2C2CC12 (single isomer, unassigned) [Example 44-P1] with D2L receptor (Homo sapiens); value = 45.9

* * *

- target: D2L receptor (Homo sapiens)
- run-description: D2L receptor cAMP agonist test
- condition-notes: HEK293 cell strain stably expressing D2L receptor; cAMP; forskolin 0.5 μM
Each entry below carries its reported EC50.
Entry rule: numbers only, all in nM.

Please review the entries below; each comes with its answer.
>>> print(df.to_string())
                                   molecule  units_text  number
0  O=C1Nc2cc(OCCCCN3CCN(c4cccc5c4CCC5)CC3)ccc2C2CC12 (single isomer, unassigned) [Example 43-P1]          nM     0.9
1  O=C1Nc2cc(OCCCCN3CCN(c4cccc(Cl)c4Cl)CC3)ccc2C2CC12 (stereo not shown) [Example 1]          nM    0.62
2  O=C1Nc2cc(OCCCCN3CCN(c4cccc5sccc45)CC3)ccc2C2CC12 (single isomer, unassigned) [Example 42-P1]          nM    0.99
3  O=C1Nc2cc(OCCCCN3CCN(c4cccc5c4OCC5)CC3)ccc2C2CC12 (single isomer, unassigned) [Example 44-P2]          nM    0.22
4  O=C1Nc2cc(OCCCCN3CCN(c4cccc(Cl)c4Cl)CC3)ccc2[C@@H]2C[C@H]12 (single isomer, unassigned) [Example 1-P2]          nM    0.61
5  O=C1Nc2cc(OCCCCN3CCN(c4cccc5c4OCC5)CC3)ccc2C2CC12 (single isomer, unassigned) [Example 44-P1]          nM    0.26

Turning to the following molecule.
In plain terms, O=C1Nc2cc(OCCCCN3CCN(c4cccc5c4OC(F)(F)O5)CC3)ccc2C2CC12 (stereo not shown) [Example 41] has a documented EC50 of 0.97

* * *

- target: UniProt:P28223
- run-description: Calcium flux test for 5-HT2A receptor
- Assay type: cell-based
- condition-notes: CHO cell strain stably expressing 5-HT2A receptor; positive control ketanserin 10^−7 M
measurement-name: 5-HT2A Max Inh % (%)
Entry rule: numbers only, all in %.

Please review the entries below; each comes with its answer.
>>> print(df.to_string())
                                   compound  units_text  number
0  O=C1Nc2cc(OCCCCN3CCN(c4cccc(Cl)c4Cl)CC3)ccc2[C@@H]2C[C@H]12 (single isomer, unassigned) [Example 1-P2]           %   100.3
1  O=C1Nc2cc(OCCCCN3CCN(c4cccc5sccc45)CC3)ccc2C2CC12 (single isomer, unassigned) [Example 42-P1]           %   100.5
2  O=C1Nc2cc(OCCCCN3CCN(c4cccc5c4OCC5)CC3)ccc2C2CC12 (single isomer, unassigned) [Example 44-P1]           %    99.6

// returns 5-HT2A Max Inh % for O=C1Nc2cc(OCCCCN3CCN(c4cccc5sccc45)CC3)ccc2C2CC12 (single isomer, unassigned) [Example 42-P2] with UniProt:P28223; value = 97.3

// returns 5-HT2A Max Inh % for O=C1Nc2cc(OCCCCN3CCN(c4cccc5[nH]ccc45)CC3)ccc2C2CC12 (stereo not drawn) with UniProt:P28223; value = 99.9

// returns 5-HT2A Max Inh % for O=C1Nc2cc(OCCCCN3CCN(c4cccc5sc(Cl)cc45)CC3)ccc2C2CC12 (stereo not drawn) with UniProt:P28223; value = 90.4

// returns 5-HT2A Max Inh % for O=C1Nc2cc(OCCCCN3CCN(c4cccc5c4CCC5)CC3)ccc2C2CC12 (stereo not drawn) [Example 43] with UniProt:P28223; value = 100.3

// returns 5-HT2A Max Inh % for O=C1Nc2cc(OCCCCN3CCN(c4cccc(Cl)c4O)CC3)ccc2C2CC12 (stereo not drawn) with UniProt:P28223; value = 94.2

// returns 5-HT2A Max Inh % for O=C1Nc2cc(OCCCCN3CCN(c4cccc5c4CCC5)CC3)ccc2C2CC12 (single isomer, unassigned) [Example 43-P2] with UniProt:P28223; value = 96.6

// returns 5-HT2A Max Inh % for O=C1Nc2cc(OCCCCN3CCN(c4cccc5c4CC(F)(F)C5=O)CC3)ccc2C2CC12 (stereo not drawn) with UniProt:P28223; value = 96.0
